# ASSAY_COMMENT: growth inhibitors of tim10-1 mutant yeast, primary screen, luminescence, uHTS (AID 463190);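 further: mutant grown at 25 °C; 0% = DMSO wells with yeast and 100% = wells holding no yeast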
# STATED_CONDITIONS: S. cerevisiae tim10-1 ts strain growth, BacTiter-Glo, 24 h; at 20 µM; active compounds read high
The whole screen tested about 330,000 compounds, of which about 7,300 (2.2%) were called active. For the sample, actives were picked, then their nearest neighbours and some compounds at random.
ASSAY_READOUT: inhibition (%)
Give just the numeric value; % need not be written.

Sample records with inhibition:
[[record]]
compound = "O=S(=O)(c1ccc(Cl)cc1)c1nc(-c2ccco2)oc1N1CCCCC1"
assay_readout = "inhibition"
endpoint_value = 26.4

[[record]]
compound = "COC(C(=O)NCc1ccccc1C)c1ccccc1 (stereo unspecified)"
assay_readout = "inhibition"
endpoint_value = -2.01

[[record]]
compound = "Cc1nc(N2CCCCC2)sc1C=O"
assay_readout = "inhibition"
endpoint_value = -8.24


Sample CCOC(=O)C1(CCOc2ccccc2)CCN(Cc2cc(OC)cc(OC)c2)CC1 — what was its inhibition?
30.7

Quick one: inhibition for O=C(Nc1ccc(Cl)cc1)Nc1nnc(/C=C/c2ccccc2)s1 ?
5.19

Can you share its inhibition? I mean this compound: Brc1ccc2nc(N3CCCC3)sc2c1
22.5

Reported inhibition, compound O=C(CCCC(=O)N(CC(=O)NC1CCCC1)Cc1ccccc1Cl)Nc1ccccn1 : ____
14.9

inhibition for Fc1ccccc1/C=N/n1c(-c2cccnc2)n[nH]c1=S ?
-14.4

Record request: inhibition value, item CCc1cc(C(=O)Nc2nnc(C3CC3)s2)sc1C
14.7

Any idea what its inhibition is? The compound is COc1ccc(OC)c(C2C3=C(N=c4s/c(=C\c5cccc(O)c5)c(=O)n42)c2ccccc2CC3)c1 (stereo unspecified)
22

Would you kindly share the measured inhibition for CCOC(=O)C1(S(=O)(=O)c2ccc(Cl)cc2)CCN(Cc2ccccc2)CC1 ?
39.5

Request the reported inhibition associated with S=c1[nH]nc(-c2ccncc2)n1/N=C/c1ccccc1Cl
13.5

Give the measured inhibition of NS(=O)(=O)c1ccc(CCNC(=O)Nc2ccc(Cl)cc2)cc1 .
8.7

Requested read-out: inhibition. Entry: C[C@H](CO)N1C[C@H](C)[C@@H](CN(C)C(=O)Nc2ccc3c(c2)OCO3)Oc2c(cccc2N(C)C)C1=O
12.3
